target.desc: TG2 (transglutaminase-2, transglutaminase type 2) (Homo sapiens, UniProt P21980, K634S)
Sequence (P21980 1-687 K634S): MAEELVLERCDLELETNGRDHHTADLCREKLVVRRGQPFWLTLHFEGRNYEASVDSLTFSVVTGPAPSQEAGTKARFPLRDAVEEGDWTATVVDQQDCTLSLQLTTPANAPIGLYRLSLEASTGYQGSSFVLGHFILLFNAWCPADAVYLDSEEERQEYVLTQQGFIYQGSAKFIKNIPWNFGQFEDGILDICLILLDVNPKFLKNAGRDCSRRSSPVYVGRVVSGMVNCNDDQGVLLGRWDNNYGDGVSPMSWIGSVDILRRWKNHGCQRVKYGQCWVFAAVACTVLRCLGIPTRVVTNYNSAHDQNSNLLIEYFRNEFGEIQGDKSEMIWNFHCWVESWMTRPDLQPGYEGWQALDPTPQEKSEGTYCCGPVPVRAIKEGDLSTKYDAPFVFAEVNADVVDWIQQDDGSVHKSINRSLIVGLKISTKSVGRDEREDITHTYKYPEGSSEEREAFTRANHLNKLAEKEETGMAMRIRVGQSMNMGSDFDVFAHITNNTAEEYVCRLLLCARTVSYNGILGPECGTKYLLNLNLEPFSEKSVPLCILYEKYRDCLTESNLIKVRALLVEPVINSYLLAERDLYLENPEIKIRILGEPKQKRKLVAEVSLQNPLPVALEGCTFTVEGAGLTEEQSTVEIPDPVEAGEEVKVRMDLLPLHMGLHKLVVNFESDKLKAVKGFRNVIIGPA
metric: IC50 (µM)
Give the value in µM but do not write µM after it.

Lookup: Endpoint output: IC50 of Nc1nc2c(ncn2[C@@H]2O[C@H](COP(=O)(O)OP(=O)(O)OP(=O)(O)O)[C@@H](O)[C@H]2O)c(=O)[nH]1 . Value?
Found: 199
